A compilation of published IC50 results with Proto-oncogene tyrosine-protein kinase Src (Homo sapiens).
Answers are plain numbers, in µM.

Recorded results for 5 compounds are shown here.
Item Smiles | Assay System | Readout Label | Unit | Test Result
CC[C@H](C)[C@H](NC(=O)[C@@H](N)CS)C(=O)N[C@@H](Cc1ccc(O)cc1)C(=O)NCC(=O)N[C@@H](CO)C(=O)N[C@@H](Cc1ccccc1)C(=O)N[C@@H](CS)C(=O)N[C@@H](CCCCN)C(=O)N[C@@H](CCCCN)C(N)=O | Proto-oncogene tyrosine-protein kinase Src (Homo sapiens) | IC50 | µM | 6.9
CC(=O)N[C@@H](Cc1ccc(OP(=O)(O)O)cc1)C(=O)N[C@@H](C)c1nc(Cc2ccc(I)cc2)no1 | Proto-oncogene tyrosine-protein kinase Src (Homo sapiens) | IC50 | µM | 18
CN1CCN(c2ccc(Nc3nc(N)c(C(=O)c4ccc5c(c4)OCCO5)s3)cc2)CC1 | Proto-oncogene tyrosine-protein kinase Src (Homo sapiens) | IC50 | µM | 3.21
Cc1cc2c(Nc3ccc4nc(N)sc4c3)c(C#N)cnc2cc1OCCCN1CCOCC1 | Proto-oncogene tyrosine-protein kinase Src (Homo sapiens) | IC50 | µM | 0.0811
COc1cc(Nc2c(C#N)cnc3cc4[nH]cnc4cc23)cc(OC)c1OC | Proto-oncogene tyrosine-protein kinase Src (Homo sapiens) | IC50 | µM | 0.33

// below: IC50 requested for another compound
Task item: Suppose we examine the compound CCS(=O)(=O)c1ccc2c(c1)/C(=C/c1[nH]c3c(c1CCCN1CCN(CCO)CC1)CCCC3)C(=O)N2 ; what IC50 value has been reported?
Reply: 0.07
